molecules and their reported k obs / 1
# Test System: Procathepsin L (Homo sapiens) (UniProt P07711)
# Sequence (P07711 114-333 limits assumed): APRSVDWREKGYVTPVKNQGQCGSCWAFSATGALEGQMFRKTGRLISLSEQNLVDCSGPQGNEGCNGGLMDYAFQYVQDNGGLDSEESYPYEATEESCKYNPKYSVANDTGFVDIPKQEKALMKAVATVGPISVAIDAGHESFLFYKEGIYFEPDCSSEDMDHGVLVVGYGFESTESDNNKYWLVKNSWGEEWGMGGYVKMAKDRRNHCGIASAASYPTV
# Assay: Inhibition of cathepsin L (fluorogenic assay), apparent second order rate constant
Report only the number, with the unit M⁻¹ s⁻¹ understood.

See these solved cases before continuing.
COC(=O)N[C@H](C)C(=O)NC(CC(C)C)C(=O)NC(Cc1ccccc1)C(=O)COC(=O)c1c(F)cccc1F (stereo partly drawn) | 400
CC(C)C(NC(=O)OCc1ccccc1)C(=O)NCC(=O)COC(=O)c1c(Cl)ccc(S(=O)(=O)NCC(=O)OCc2ccccc2)c1Cl (stereo not drawn) | 120000
CC(C)CC(NC(=O)OCc1ccccc1)C(=O)NCC(=O)COC(=O)c1c(Cl)ccc(S(=O)(=O)N2CCOCC2)c1Cl (stereo not drawn) | 160000

I have this molecule here, COC(=O)N[C@H](C)C(=O)NC(CC(C)C)C(=O)NC(Cc1ccccc1)C(=O)COC(=O)c1c(Cl)ccc(OCCN2CCOCC2)c1Cl (stereo partly drawn) , and I need its recorded k obs / 1.
90000

And the next one, CC(C)CC(NC(=O)[C@@H](C)NC(=O)OCc1ccccc1)C(=O)NC(Cc1ccccc1)C(=O)COC(=O)c1c(Cl)ccc(OCCN2CCOCC2)c1Cl (stereo partly drawn) ?
28000

And the next one, CC(C)C[C@H](NC(=O)[C@H](C)NC(=O)OCc1ccccc1)C(=O)N[C@@H](Cc1ccccc1)C(=O)COC(=O)c1c(F)cccc1F ?
1600

And the next one, CC(NC(=O)C(Cc1ccccc1)NC(=O)OCc1ccccc1)C(=O)COC(=O)c1c(Cl)cccc1Cl (stereo not drawn) ?
104000

And the next one, CC(NC(=O)C(Cc1ccccc1)NC(=O)OCc1ccccc1)C(=O)COC(=O)c1c(Cl)ccc(OCCN2CCOCC2)c1Cl (stereo not drawn) ?
180000

And the next one, CC(C)CC(NC(=O)CNC(=O)OCc1ccccc1)C(=O)NC(Cc1ccccc1)C(=O)COC(=O)c1c(F)cccc1F (stereo not drawn) ?
14000

* * *

# Test System: Cathepsin B (Homo sapiens)
# Assay: Apparent second order rate constant for inhibition of cathepsin B by fluorogenic assay.
Peptide text beside a SMILES is read from it. * marks the point of attachment. Cbz = O=C(OCc1ccccc1)*; CH2Cl = ClC*
Measured Quantity: log10(k obs / 1) (log10 of the value in M⁻¹ s⁻¹)
Would you kindly interpret these values as log10 of k obs / 1 expressed in M⁻¹ s⁻¹?

See these solved cases before continuing.
CC(C)C[C@H](NC(=O)[C@H](C)NC(=O)OCc1ccccc1)C(=O)N[C@@H](Cc1ccccc1)C(=O)COC(=O)c1c(F)cccc1F | 3.34
NC(=O)CC(NC(=O)OCc1ccccc1)C(=O)NC(Cc1ccccc1)C(=O)CCl (stereo not drawn) (Cbz-Asn-Phe-CH2Cl; configuration not given here) | 3.48
CC(C)CC(NC(=O)[C@@H](C)NC(=O)OCc1ccccc1)C(=O)NC(Cc1ccccc1)C(=O)COC(=O)c1c(F)cccc1F (stereo partly specified) | 2.00
CC(C)CC(NC(=O)OCc1ccccc1)C(=O)NC(C)C(=O)CCl (stereo unspecified) | 4.63
CC(C)CC(NC(=O)OCc1ccccc1)C(=O)NC(Cc1ccccc1)C(=O)CCl (stereo not drawn) (Cbz-Leu-Phe-CH2Cl; configuration not given here) | 3.40

Consider the additional compound presented here.
I have this compound here, CC(C)C[C@H](NC(=O)OCc1ccccc1)C(=O)N[C@@H](Cc1ccc(O)cc1)C(=O)CBr , and I need its recorded log10(k obs / 1).
1.70
